assay: in vivo; conditions: mouse, in vivo, ip; intraperitoneal administration, mice, 7 days (footnote b)
Measurement type: LD50 at 168 h

These recorded examples may help you get a feel for the data.
Return value of LD50 at 168 h for input CCCn1cnc2c1c(=O)n(CCCCC(O)CO)c(=O)n2CC (stereo not shown) [Compound 14] , no commentary.
300 to 600 mg/kg

Kindly indicate its recorded LD50 at 168 h. Item: C=CCn1c(=O)c2c(ncn2CCCCC(C)O)n(C)c1=O (stereo not shown) [Compound 18]
250 to 500 mg/kg

Identify the reported LD50 at 168 h for the following entry. CCCCCCn1c(=O)c2c(ncn2CCCCC(C)O)n(C)c1=O (stereo not shown) [Compound 17]
500 to 1000 mg/kg

Now for a further compound.
Let me know recorded LD50 at 168 h for CCn1c(=O)c2c(ncn2CCCCC(C)=O)n(C)c1=O [Compound 22] , thanks.
200 to 400 mg/kg

###

Experiment: in vivo
Conditions: mouse, in vivo; intravenous, mice, n=3/group, 7 days
Procedure: LD50 values of the compounds of this invention were determined after intravenous injection or intraperitoneal administration to mice for acute toxicity test. The studies were carried out using male and female NMRI mice (n=3/group) having a body weight between 19-21 g.
Measurement type: LD50 at 168 h

Below, each entry is followed by its recorded LD50 at 168 h result.
Note LD50 at 168 h for the compound shown: CC(=O)CCCCn1c(=O)c2c(ncn2CCCCC(O)CO)n(C)c1=O (stereo not drawn)
> 200 mg/kg

For the compound CCCn1c(=O)c2c(ncn2CCCCCC(O)CO)n(CC)c1=O (stereo not drawn) , give its reported LD50 at 168 h.
200 to 400 mg/kg

Tell us which LD50 at 168 h value is on record for CCCCCn1c(=O)c2c(ncn2CCCCC(O)CO)n(CC)c1=O (stereo not drawn)
> 200 mg/kg

Please report the measured LD50 at 168 h for C=CCn1cnc2c1c(=O)n(CCCCC(C)O)c(=O)n2C (stereo not drawn)
100 to 200 mg/kg

Fill in LD50 at 168 h for record CCCCn1c(=O)c2c(ncn2CCCCC(C)O)n(C)c1=O (stereo not drawn)
100 to 200 mg/kg

Recall and state the measured LD50 at 168 h for CCn1c(=O)n(CC(C)=O)c(=O)c2c1ncn2CCCCC(O)CO (stereo not drawn) .
> 200 mg/kg

Given CC(=O)CCCCn1cnc2c1c(=O)n(CC(C)=O)c(=O)n2C , respond with its LD50 at 168 h.
> 200 mg/kg

Specify LD50 at 168 h for CC(=O)CCCCn1c(=O)c2c(ncn2CC(C)O)n(C)c1=O (stereo not drawn) and stop.
> 200 mg/kg

Continuing:
# return recorded LD50 at 168 h for entry CC(=O)Cn1c(=O)c2c(ncn2CCCCC(C)O)n(C)c1=O (stereo not drawn)
> 200 mg/kg

Give recorded LD50 at 168 h. CCn1c(=O)n(CC(C)C)c(=O)c2c1ncn2CCCCC(O)CO (stereo not drawn)
> 200 mg/kg

###

test system: stress-induced gastric ulcer in rats; experiment: Protective effect on gastric ulcer induced by restraint plus water-immersion stress in rats; format: in vivo, male Sprague-Dawley rats; conditions: 10 mg/kg po, mean ± S.E., series with control (distilled water) 19.7 ± 2.9 mm
Measurement type: Ulcer index

Look over these answered cases.
Read the entry CC(=O)CCCCn1c(=O)c2c(ncn2CC(C)O)n(C)c1=O (centres unmarked) and write its reported Ulcer index.
6.9 ± 2.1 mm

Find the measured Ulcer index of CCCn1c(=O)c2c(ncn2CCCCC(O)CO)n(CC)c1=O (centres unmarked) and report it.
2.7 ± 0.9 mm

Consider the compound C=CCn1c(=O)c2c(ncn2CCCCC(C)O)n(C)c1=O (centres unmarked) and give its recorded Ulcer index.
15.3 ± 2.1 mm

Identify measured Ulcer index associated with CCCCn1c(=O)c2c(ncn2CCCCC(O)CO)n(CC)c1=O (centres unmarked)
6.0 ± 1.9 mm

Further cases:
Return Ulcer index (reported value) for this compound: CCn1c(=O)c2c(ncn2CCCCC(C)=O)n(C)c1=O
8.0 ± 4.2 mm

Specify Ulcer index for CC(=O)Cn1cnc2c1c(=O)n(CCCCC(C)O)c(=O)n2C (centres unmarked) and stop.
15.8 ± 4.6 mm

Please list Ulcer index recorded for the compound CCCn1c(=O)c2c(ncn2CCCCC(C)O)n(C)c1=O (centres unmarked)
2.2 ± 0.9 mm

Tell me its Ulcer index given CC(=O)CCCCn1cnc2c1c(=O)n(CC(C)=O)c(=O)n2C as the entry.
10.3 ± 3.5 mm
